Item-by-item account of relative viability
Tested on: NCI-H647
Experimental Protocol: relative viability (nuclei count vs DMSO), 5 days (fraction); higher = more cells survive
Condition Details: first compound 0.04 µM
Experimental Endpoint: relative viability

>>> endpoint_value("C[C@@H]1CN(CC(=O)Nc2ccc3c(c2)Cc2cccc(-c4cc(=O)cc(N5CCOCC5)o4)c2S3)C[C@H](C)O1 + COc1cccc2cc(-c3nc([C@H]4CC[C@H](C(=O)O)CC4)n4ncnc(N)c34)[nH]c12 [OSI-027] (partner 0.5 µM)")
0.519
>>> endpoint_value("Clc1ccc(Nc2nnc(Cc3ccncc3)c3ccccc23)cc1 [Vatalanib] + O=C(c1cc(Cc2n[nH]c(=O)c3ccccc23)ccc1F)N1CCN(C(=O)C2CC2)CC1 [Olaparib] (partner 8 µM)")
0.612
>>> endpoint_value("Clc1ccc(Nc2nnc(Cc3ccncc3)c3ccccc23)cc1 [Vatalanib] + Cc1cc(Nc2cc(N3CCN(C)CC3)nc(Sc3ccc(NC(=O)C4CC4)cc3)n2)n[nH]1 [Tozasertib] (partner 0.1 µM)")
0.3
>>> endpoint_value("C[C@@H]1CN(CC(=O)Nc2ccc3c(c2)Cc2cccc(-c4cc(=O)cc(N5CCOCC5)o4)c2S3)C[C@H](C)O1 + Nc1nc2[nH]cc(CCc3ccc(C(=O)N[C@@H](CCC(=O)O)C(=O)O)cc3)c2c(=O)[nH]1 [Pemetrexed] (partner 0.2 µM)")
0.19
